STUDY_SYSTEM: Protein-arginine deiminase type-4 (Homo sapiens)
ASSAY_SUMMARY: blockers of protein arginine deiminase 4 – biochemical, fluorescence polarization, primary screen (AID 463073);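 also: 0% = PAD4 with DMSO and 100% = wells lacking PAD4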
RECORDED_CONDITIONS: recombinant PAD4, RFA probe fluorescence polarization; at 5 µM; hits give high values
About 10 (0.5%) of roughly 2,000 compounds were called active. This is one part of a sample in which actives are shown more often than they occur.
Measured inhibition values are reported for all entries that follow.

Use the examples below as a reference point.
- COMPOUND: "Cc1cc(OC(=O)CNC(=O)OC(C)(C)C)c2c(C)cc(=O)oc2c1"
  STUDY_SYSTEM: "Protein-arginine deiminase type-4 (Homo sapiens)"
  inhibition: "22.1% (inactive)"
- COMPOUND: "O=C1C2CC=C(Cl)CC2C(=O)N1CCc1c[nH]c2ccccc12 (centres undefined)"
  STUDY_SYSTEM: "Protein-arginine deiminase type-4 (Homo sapiens)"
  inhibition: "-0.53% (inactive)"
- COMPOUND: "CCOc1cc2c3c(c1)C(C)=CC(C)(C)N3C(=O)C2=O"
  STUDY_SYSTEM: "Protein-arginine deiminase type-4 (Homo sapiens)"
  inhibition: "-0.07% (inactive)"
- COMPOUND: "CCOc1ncnc2c1[nH]c1ccccc12"
  STUDY_SYSTEM: "Protein-arginine deiminase type-4 (Homo sapiens)"
  inhibition: "1.88% (inactive)"
- COMPOUND: "Cc1ccc(CSCC(=O)N2CCCC2)cc1"
  STUDY_SYSTEM: "Protein-arginine deiminase type-4 (Homo sapiens)"
  inhibition: "0.78% (inactive)"

# inhibition of CN(C)C(=O)C12CCC(C)(c3nc4ccccc4nc31)C2(C)C (centres undefined) = 3.6% (inactive)

# inhibition of "COc1ccc(-c2noc(-c3ccccc3-c3ccccc3)n2)cc1" = -3.61% (inactive)

----------
Measured inhibition values are reported for all entries that follow.
STUDY_SYSTEM: Protein-arginine deiminase type-4 (Homo sapiens)
ASSAY_SUMMARY: blockers of protein arginine deiminase 4 – biochemical, fluorescence polarization, primary screen (AID 463073);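 also: 0% = PAD4 with DMSO and 100% = wells lacking PAD4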
RECORDED_CONDITIONS: recombinant PAD4, RFA probe fluorescence polarization; at 5 µM; hits give high values
In all, about 2,000 compounds went through this assay and about 10 (0.5%) were called active. The full list was thinned out, with actives kept by preference.
Give just the number in %; leave the unit off.

Use the examples below as a reference point.
- MOLECULE: "COc1ccc(CCNC(=O)CC(c2ccccc2)c2cccc(C)c2O)cc1OC (configuration not stated)"
  STUDY_SYSTEM: "Protein-arginine deiminase type-4 (Homo sapiens)"
  METRIC: "inhibition"
  VALUE_OBSERVED: 1.59
- MOLECULE: "O=C(CN1C(=O)c2ccccc2S1(=O)=O)Nc1ccccc1"
  STUDY_SYSTEM: "Protein-arginine deiminase type-4 (Homo sapiens)"
  METRIC: "inhibition"
  VALUE_OBSERVED: -2.01
- MOLECULE: "CC(=O)NC1C(OCCOc2ccc(Cl)cc2Cl)OC(COC(C)=O)C(OC(C)=O)C1OC(C)=O (configuration not stated)"
  STUDY_SYSTEM: "Protein-arginine deiminase type-4 (Homo sapiens)"
  METRIC: "inhibition"
  VALUE_OBSERVED: 2.94
- MOLECULE: "COC(=O)c1[nH]c2ccc(C)cc2c1NC(=O)CN1CCc2cc(OC)c(OC)cc2C1"
  STUDY_SYSTEM: "Protein-arginine deiminase type-4 (Homo sapiens)"
  METRIC: "inhibition"
  VALUE_OBSERVED: 0.78
- MOLECULE: "CS(=O)(=O)c1cccc(C(=O)Oc2ccccc2)c1"
  STUDY_SYSTEM: "Protein-arginine deiminase type-4 (Homo sapiens)"
  METRIC: "inhibition"
  VALUE_OBSERVED: 5.29
- MOLECULE: "CCOC(=O)C1C(=O)OC(C)(C)C1C(C)C(=O)c1ccc(C)cc1 (configuration not stated)"
  STUDY_SYSTEM: "Protein-arginine deiminase type-4 (Homo sapiens)"
  METRIC: "inhibition"
  VALUE_OBSERVED: -0.2

Shifting focus to the molecule that follows.
# inhibition of "O=C(NC(=S)Nc1nc(-c2ccccc2)cs1)c1ccco1" = 4.01
